Molecular target: DprE1 (Mycolicibacterium smegmatis)
Sequence (A0R607 whole entry): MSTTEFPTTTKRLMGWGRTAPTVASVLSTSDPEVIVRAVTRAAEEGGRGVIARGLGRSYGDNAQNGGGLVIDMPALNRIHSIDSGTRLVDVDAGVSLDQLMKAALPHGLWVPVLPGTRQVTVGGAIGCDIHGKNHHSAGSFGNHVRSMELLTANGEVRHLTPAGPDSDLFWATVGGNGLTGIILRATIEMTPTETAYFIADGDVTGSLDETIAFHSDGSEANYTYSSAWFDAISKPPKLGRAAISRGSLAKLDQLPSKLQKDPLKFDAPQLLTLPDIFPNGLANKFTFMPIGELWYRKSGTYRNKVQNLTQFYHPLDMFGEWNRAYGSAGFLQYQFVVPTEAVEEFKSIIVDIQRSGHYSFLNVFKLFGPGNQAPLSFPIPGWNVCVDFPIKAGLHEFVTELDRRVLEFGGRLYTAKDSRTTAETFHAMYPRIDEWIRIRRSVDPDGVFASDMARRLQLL
Assay: crystal structure of covalent adduct
Format: biochemical
measure: IC50
Could you give the number and then its unit, please?

Look at this compound and give its reported IC50. C[C@H]1COC2(CCN(c3nc(=O)c4cc(C(F)(F)F)cc([N+](=O)[O-])c4s3)CC2)O1 [BTZ043]
4.5 µM

====

Target: UniProt A0R607
Assay: DCPIP enzyme assay, […] min incubation
Format: biochemical
In this section we review reported IC50 values for a set of compounds.
Please give a number only; it is taken to be in µM.

1) C[C@H]1COC2(CCN(c3nc(=O)c4cc(C(F)(F)F)cc(N)c4s3)CC2)O1 [BTZ045]; 11

Pending compound:
Look at this compound and give its reported IC50. C[C@H]1COC2(CCN(c3nc(=O)c4cc(C(F)(F)F)cc(NO)c4s3)CC2)O1 [BTZ046]
19.7

meta.source: paper PMC3659392
